# Tested on: 695427-040-R-J1-PDC complex spheroid viability;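 note: viability read after seven days of drug exposure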
# Assay Details: Anticancer human tumor 695427-040-R-J1-PDC patient-derived colon adenocarcinoma cell line growth inhibition [RAS]
# Recorded Conditions: curve of first compound; second compound 0.3 µM
Test Readout: IC50

{"Molecule": "CC(C)NCC(C(=O)N1CCN(c2ncnc3c2C(C)CC3O)CC1)c1ccc(Cl)cc1 (stereo not drawn) + CCn1c(-c2cc(N3CCN(C)CC3)cnc2C(C)OC)c2c3cc(ccc31)-c1csc(n1)CC(NC(=O)C1CC1C)C(=O)N1CCCC(N1)C(=O)OCC(C)(C)C2", "Assayed System": "695427-040-R-J1-PDC complex spheroid viability", "Reading": "< 31.6 nM"}

Could you now consider this next molecule?
Prompt line: So what does the record say about IC50 for CCC(CC)c1cc(NC2CCC(N)C2)n2nccc2n1 (stereo not drawn) + CCn1c(-c2cccnc2C(C)OC)c2c3cc(ccc31)N1CCOC(CC(NC(=O)C(C(C)C)N(C)C(=O)C3(F)CCN(C(=O)C#CC(C)(C)N(C)C)CC3)C(=O)N3CCCC(N3)C(=O)OCC(C)(C)C2)C1 ?
Response line: 1460 nM
